experiment: Cytotoxicity against human PC3 cells assessed as growth inhibition after 48 hrs by MTT assay; assay type: functional, cell-based; details: PC-3, 48 h
REPORTED METRIC: IC50

Use the examples below as a reference point.
SMILES INPUT | IC50
COc1cc(-c2nnc(SCc3ccc(C)cc3)n2-c2ccc(N(C)C)cc2)cc(OC)c1OC | 37.3 µM
COc1ccc(-n2c(SCC(=O)C3CC3)nnc2-c2cc(OC)c(OC)c(OC)c2)cc1 | 37.2 µM
COc1ccc(-n2c(SCC(=O)c3ccc(F)cc3)nnc2-c2cc(OC)c(OC)c(OC)c2)cc1 | 58.2 µM
COc1cc(-c2nnc(S)n2-c2ccc(N(C)C)cc2)cc(OC)c1OC | > 60 µM

We now examine a further compound.
Query: Which IC50 value belongs to COc1ccc(CSc2nnc(-c3cc(OC)c(OC)c(OC)c3)n2-c2ccc(OC)cc2)cc1 ?
Result: 40.3 µM

----------
species on record: Sus scrofa; assay: Inhibition of porcine brain tubulin polymerization at 10 uM in presence of GTP by spectrophotometric method relative to control
Kind request: treat 40% as inclusive, so inhibition at 40% or higher is true, anything lower is false.

Before answering, review these 4 worked examples.
SMILES INPUT | ANSWER LABEL
COc1ccc(-n2c(SCc3ccc(C)cc3)nnc2-c2cc(OC)c(OC)c(OC)c2)cc1 | false
COc1cc(-c2nnc(SCC(=O)c3ccc4ccccc4c3)n2-c2ccc(N(C)C)cc2)cc(OC)c1OC | false
COc1ccc(/C=C\c2cc(OC)c(OC)c(OC)c2)cc1O | true
COc1ccc(C(=O)CSc2nnc(-c3cc(OC)c(OC)c(OC)c3)n2-c2ccc(OC)cc2)cc1 | false

Query: Textbook exercise: given the entry COc1ccc(-n2c(SCC(=O)C3CC3)nnc2-c2cc(OC)c(OC)c(OC)c2)cc1 , state whether its inhibition is greater than or equal to 40%.
Result: false

Query: Also need COc1ccc(-n2c(SCc3ccccc3)nnc2-c2cc(OC)c(OC)c(OC)c2)cc1 , thanks.
Result: false

----------
assay: Cytotoxicity against human PC3 cells assessed as growth inhibition after 48 hrs by MTT assay; format: functional, cell-based; details: PC-3, 48 h
Each item that follows carries a reported pIC50.
Scale for pIC50: -log10 of concentration given in mol/L; no unit attached.

Worked examples follow.
SMILES INPUT | pIC50
COc1ccc(NC(=O)CSc2nnc(-c3cc(OC)c(OC)c(OC)c3)n2-c2ccc(N(C)C)cc2)cc1 | 4.25
COc1cc(-c2nnc(SCc3ccc(F)cc3)n2-c2ccc(N(C)C)cc2)cc(OC)c1OC | 4.33
COc1cc(-c2nnc(SCC(=O)c3ccc(F)cc3)n2-c2ccc(N(C)C)cc2)cc(OC)c1OC | 4.37
COc1cc(-c2nnc(SCc3ccccc3)n2-c2ccc(N(C)C)cc2)cc(OC)c1OC | 4.25
COc1ccc(-n2c(SCc3ccc(C)cc3)nnc2-c2cc(OC)c(OC)c(OC)c2)cc1 | 4.25
COc1ccc(NC(=O)CSc2nnc(-c3cc(OC)c(OC)c(OC)c3)n2-c2ccc(OC)cc2)cc1 | 4.59

Query: Quick check: pIC50 of COc1ccc(-n2c(SCc3ccc(F)cc3)nnc2-c2cc(OC)c(OC)c(OC)c2)cc1 ?
Result: 4.46

Query: Param item: COc1cc(-c2nnc(SCC(=O)c3ccc4ccccc4c3)n2-c2ccc(N(C)C)cc2)cc(OC)c1OC
Result: 4.74

----------
assay: Cytotoxicity against human HT-29 cells assessed as growth inhibition after 48 hrs by MTT assay; format: functional, cell-based; conditions: HT-29, 48 h
REPORTED METRIC: IC50

Query: Fill in: IC50 of COc1cc(-c2nnc(SC)n2-c2ccc(N(C)C)cc2)cc(OC)c1OC is ___
Result: > 60 µM

Query: // same read-out, input: COc1ccc(-n2c(SCC(=O)c3ccccc3)nnc2-c2cc(OC)c(OC)c(OC)c2)cc1
Result: > 60 µM

----------
experiment: Cytotoxicity against human HCT116 cells assessed as growth inhibition after 48 hrs by MTT assay; format: functional, cell-based; conditions: HCT-116, 48 h
Recorded IC50 for the following compounds

SMILES INPUT | IC50
COc1cc(-c2nnc(SCC(=O)Nc3ccc(Cl)cc3)n2-c2ccc(N(C)C)cc2)cc(OC)c1OC | 39.3 µM
COc1cc(-c2nnc(SC)n2-c2ccc(N(C)C)cc2)cc(OC)c1OC | > 60 µM
COc1ccc(-n2c(S)nnc2-c2cc(OC)c(OC)c(OC)c2)cc1 | > 60 µM
COc1cc(-c2nnc(SCc3ccc(C)cc3)n2-c2ccc(N(C)C)cc2)cc(OC)c1OC | > 60 µM

Query: Which IC50 value is on record for COc1cc(-c2nnc(SCC(=O)C3CC3)n2-c2ccc(N(C)C)cc2)cc(OC)c1OC ?
Result: > 60 µM

Query: Repeat for the following compound: COc1cc(-c2nnc(SCC(=O)c3ccc4ccccc4c3)n2-c2ccc(N(C)C)cc2)cc(OC)c1OC
Result: 54.5 µM

----------
experiment: Cytotoxicity against human PC3 cells assessed as growth inhibition after 48 hrs by MTT assay; format: functional, cell-based; settings: PC-3, 48 h
pIC50: −log10 of the molar value.
REPORTED METRIC: pIC50

SMILES INPUT | pIC50
COc1cc(-c2nnc(SC)n2-c2ccc(N(C)C)cc2)cc(OC)c1OC | < 4.22
COc1ccc(CSc2nnc(-c3cc(OC)c(OC)c(OC)c3)n2-c2ccc(N(C)C)cc2)cc1 | < 4.22
COc1cc(-c2nnc(SCC(=O)Nc3ccc(Cl)cc3)n2-c2ccc(N(C)C)cc2)cc(OC)c1OC | < 4.22
COc1ccc(-n2c(SC)nnc2-c2cc(OC)c(OC)c(OC)c2)cc1 | < 4.22
CCOC(=O)CSc1nnc(-c2cc(OC)c(OC)c(OC)c2)n1-c1ccc(N(C)C)cc1 | < 4.22

Query: State the recorded pIC50 for this entry: COc1ccc(C(=O)CSc2nnc(-c3cc(OC)c(OC)c(OC)c3)n2-c2ccc(OC)cc2)cc1
Result: < 4.22

Query: Also check COc1ccc(-n2c(S)nnc2-c2cc(OC)c(OC)c(OC)c2)cc1
Result: < 4.22

----------
Reported IC50 is given for each of the following compounds.
assay: Cytotoxicity against human HT-29 cells assessed as growth inhibition after 48 hrs by MTT assay; format: functional, cell-based; conditions: HT-29, 48 h

Example entries and their recorded answers appear below.
COMPOUND | IC50
COc1cc(-c2nnc(SCC(=O)C3CC3)n2-c2ccc(N(C)C)cc2)cc(OC)c1OC | > 60 µM
COc1ccc(-n2c(SC)nnc2-c2cc(OC)c(OC)c(OC)c2)cc1 | > 60 µM
COc1ccc(-n2c(SCc3ccccc3)nnc2-c2cc(OC)c(OC)c(OC)c2)cc1 | > 60 µM
CCOC(=O)CSc1nnc(-c2cc(OC)c(OC)c(OC)c2)n1-c1ccc(N(C)C)cc1 | 28.8 µM
COc1cc(-c2nnc(SCC(=O)c3ccc(F)cc3)n2-c2ccc(N(C)C)cc2)cc(OC)c1OC | 78 µM

Query: Please look up its IC50: COc1cc(-c2nnc(SCC(=O)c3ccc4ccccc4c3)n2-c2ccc(N(C)C)cc2)cc(OC)c1OC
Result: > 60 µM

Query: Param item: COc1ccc(C(=O)CSc2nnc(-c3cc(OC)c(OC)c(OC)c3)n2-c2ccc(OC)cc2)cc1
Result: > 60 µM

----------
assay: Cytotoxicity against human PC3 cells assessed as growth inhibition after 48 hrs by MTT assay; type: functional, cell-based; details: PC-3, 48 h
pIC50: −log10 of the molar value.
pIC50 values by entry

These solved cases illustrate the format of a correct answer.
SMILES INPUT | pIC50
COc1ccc(C(=O)CSc2nnc(-c3cc(OC)c(OC)c(OC)c3)n2-c2ccc(N(C)C)cc2)cc1O | < 4.00
COc1ccc(-n2c(SCC(=O)c3ccc(OC)c(O)c3)nnc2-c2cc(OC)c(OC)c(OC)c2)cc1 | < 4.22

Shift focus to the following entry.
Query: I would be grateful if you could share the reported pIC50 for CCOC(=O)CSc1nnc(-c2cc(OC)c(OC)c(OC)c2)n1-c1ccc(OC)cc1 .
Result: < 4.22

----------
assay: Cytotoxicity against human HT-29 cells assessed as growth inhibition after 48 hrs by MTT assay; type: functional, cell-based; details: HT-29, 48 h
Measured IC50, listed per entry.
Give the value, in units of µM, as a plain number.

Some entries whose results are on file:
SMILES INPUT | UNIT NAME | IC50
COc1ccc(-n2c(SCC(=O)Nc3ccc(Cl)cc3)nnc2-c2cc(OC)c(OC)c(OC)c2)cc1 | µM | 58
COc1ccc(-n2c(SCC(=O)c3ccc4ccccc4c3)nnc2-c2cc(OC)c(OC)c(OC)c2)cc1 | µM | 53.4
COc1ccc(-n2c(SCC(=O)c3ccc(F)cc3)nnc2-c2cc(OC)c(OC)c(OC)c2)cc1 | µM | 42.5
COc1ccc(-n2c(SCc3ccc(F)cc3)nnc2-c2cc(OC)c(OC)c(OC)c2)cc1 | µM | 50.7

Query: IC50; subject: COc1cc(-c2nnc(SCc3ccc(C)cc3)n2-c2ccc(N(C)C)cc2)cc(OC)c1OC
Result: 27.4

Query: What do you get for COc1ccc(C(=O)CSc2nnc(-c3cc(OC)c(OC)c(OC)c3)n2-c2ccc(N(C)C)cc2)cc1 ?
Result: 64

Query: Another molecule: COc1ccc(NC(=O)CSc2nnc(-c3cc(OC)c(OC)c(OC)c3)n2-c2ccc(N(C)C)cc2)cc1
Result: 51.4

Query: Would you mind doing COc1cc(-c2nnc(SCc3ccc(F)cc3)n2-c2ccc(N(C)C)cc2)cc(OC)c1OC as well?
Result: 44.3
